assay info: Toxicity liver stage against HepG2, at 10uM
Type: cell-based
Design: test concentration 10 uM, cell line HepG2-A16-CD81EGFP
conditions used: human, HepG2-A16-CD81EGFP cells; read-out: INHIBITION
I'd be grateful if you could share measured cytotoxicity at 10 µM for these entries.
The reply should be a number in %, with the unit left off.

Query: Look up cytotoxicity at 10 µM of CCSc1ccc(C(C)NC(=O)CNS(C)(=O)=O)cc1 (stereo not given) and report it.
Result: 10.4

Query: Look up cytotoxicity at 10 µM of Cc1cc(CN2CCN(C(=O)Nc3cccnc3)CC2)on1 and report it.
Result: -7.72

Query: Look up cytotoxicity at 10 µM of CCCOc1ccc2c(c1)OCC(CNC1CCc3ncnn3C1)=C2 (stereo not given) and report it.
Result: -6.63

Query: Look up cytotoxicity at 10 µM of FC(F)(F)C1CCCn2c(CNCc3ccsc3)nnc21 (stereo not given) and report it.
Result: 16.5

Query: Look up cytotoxicity at 10 µM of Cc1cc(C)n(CCC(=O)N2CCCC(n3cncn3)C2)n1 (stereo not given) and report it.
Result: -5.05

Query: Look up cytotoxicity at 10 µM of Cc1noc(C)c1CN1C[C@@H](C(=O)O)[C@H](c2ccccc2)C1 and report it.
Result: -9.04

Query: Look up cytotoxicity at 10 µM of COCCCNC(=O)CN1CCCC1c1c(C)nn(C)c1Cl (stereo not given) and report it.
Result: 6.69

Query: Look up cytotoxicity at 10 µM of Cc1cccnc1N1CCC(c2nccn2Cc2cscn2)CC1 and report it.
Result: -0.65

Query: Look up cytotoxicity at 10 µM of O=C(c1ccnn1COc1ccc(Cl)cc1)N1CCCC1 and report it.
Result: -2.34

Query: Look up cytotoxicity at 10 µM of CNS(=O)(=O)c1ccc(C(=O)NCCc2ccccn2)cc1 and report it.
Result: -3.81

Query: Look up cytotoxicity at 10 µM of Cc1nn(C(C)(C)C)c(=O)n1CC(=O)NC(C)(C)C and report it.
Result: 1.45

Query: Look up cytotoxicity at 10 µM of CC1CN(Cc2noc(C3CC3)n2)CCN1Cc1noc(C2CC2)n1 (stereo not given) and report it.
Result: -5.5

Query: Look up cytotoxicity at 10 µM of Cc1nn2cccnc2c1C(=O)N1CCCC(n2cccn2)C1 (stereo not given) and report it.
Result: -35.9

Query: Look up cytotoxicity at 10 µM of CN1CCN(C2CCN(Cc3ccc(Cl)s3)CC2)C1=O and report it.
Result: 11.2

Query: Look up cytotoxicity at 10 µM of O=C(Cn1cc(-c2ccccc2)cn1)NC(C1CC1)C1CC1 and report it.
Result: -5

Query: Look up cytotoxicity at 10 µM of CN1CCN(C(=O)c2nc3c(s2)CCCN3C(=O)C2CC2)CC1 and report it.
Result: 1.82

Query: Look up cytotoxicity at 10 µM of N[C@@H]1CCN(Cc2cc(-c3ccccc3OC(F)(F)F)no2)C[C@H]1O and report it.
Result: 2.42

Query: Look up cytotoxicity at 10 µM of CCCc1nnc(N2CCC(N3CCCC(O)C3)CC2)o1 (stereo not given) and report it.
Result: 13.6

Query: Look up cytotoxicity at 10 µM of Cc1ncc2c(n1)C1(CCN(C(=O)C3CC3)CC1)OCC2 and report it.
Result: 6.02

Query: Look up cytotoxicity at 10 µM of COc1ccc(CCCN(C)C(=O)c2cc(Cl)c[nH]2)cc1OC and report it.
Result: -1.24

Query: Look up cytotoxicity at 10 µM of COC(=O)c1ccc(N(C)C2CCC2)nn1 and report it.
Result: 19.8

Query: Look up cytotoxicity at 10 µM of Cc1ccc(C(=O)N2CCC3(CCCCC3)C2)c(=O)[nH]1 and report it.
Result: -2.47

Query: Look up cytotoxicity at 10 µM of Cc1ccc(C(=O)N2CCSCC2)cc1NC(=O)Cn1cncn1 and report it.
Result: -11.1

Query: Look up cytotoxicity at 10 µM of O=C1CCC2(CCCN(C(=O)NCc3ccccc3)CC2)N1 (stereo not given) and report it.
Result: 5.23

Query: Look up cytotoxicity at 10 µM of CCS(=O)(=O)N1CCC2(CC1)CN(Cc1ccccn1)C(=O)CO2 and report it.
Result: 3.01

Numbers sourced from ChEMBL document CHEMBL4513216.
